# Species: Rattus norvegicus
# method.description: Selectivity ratio of Ki for rat cloned dopamine D2L receptor to Ki for rat cloned dopamine D3 receptor
quantity.measured: Ratio Ki

compound: CCCN(CCN1CCN(c2ccccc2)CC1)C1CCc2ccc3nc[nH]c3c2C1 (stereo not given)
Ratio Ki: 9.61

[P] CCCN(CCN1CCN(c2ccccc2)CC1)[C@@H]1CCc2ccc(OS(=O)(=O)c3ccc(OC)cc3)cc2C1
[Q] CCCN(CCN1CCN(c2ccccc2OC)CC1)C1CCc2cc3[nH]cnc3cc2C1 (stereo not given)
When the recorded Ratio Ki values are compared, which is smaller: that of P or that of Q ? Which one? Tell me its label.
Q
(Q: 22.5, P: 40)

====

# Species on record: Rattus norvegicus
# method.description: Selectivity ratio of Ki for rat cloned dopamine D2L receptor to Ki for rat cloned dopamine D3 receptor
quantity.measured: Ratio Ki

Sample answers from the record:
molecule: CCCN(CCN1CCN(c2ccccc2)CC1)C1CCc2cc3cc[nH]c3cc2C1 (configuration not stated)
Ratio Ki: 11.9
--
molecule: CCCN(CCN1CCN(c2ccccc2)CC1)C1CCc2ccc(NS(=O)(=O)c3ccc(C)cc3)cc2C1 (configuration not stated)
Ratio Ki: 10.6
--
molecule: CCCN(CCN1CCN(c2ccccc2)CC1)C1CCc2ccc(NS(=O)(=O)c3ccc(Cl)cc3)cc2C1 (configuration not stated)
Ratio Ki: 17.5

[1] CCCN(CCN1CCN(c2ccccc2)CC1)C1CCc2ccc(NS(=O)(=O)c3ccc(C(F)(F)F)cc3)cc2C1 (configuration not stated)
[2] CCCN(CCN1CCN(c2ccccc2)CC1)C1CCc2cc3[nH]cnc3cc2C1 (configuration not stated)
[3] CCCN(CCN1CCN(c2ccccc2)CC1)C1CCc2ccc(NC(=O)c3ccccc3)cc2C1 (configuration not stated)
[4] CCCN(CCN1CCN(c2ccccc2OC)CC1)C1CCc2cc3[nH]c(=O)[nH]c3cc2C1 (configuration not stated)
Hey, quick one: sort these by Ratio Ki, low to high? Give the labels in the order requested.
4, 3, 1, 2
